# target.of.assay: α-glucosidase from Saccharomyces cerevisiae (Saccharomyces cerevisiae, UniProt P53341)
# Construct: purchased Sigma-Aldrich (Germany)
# Sequence (P53341 whole entry): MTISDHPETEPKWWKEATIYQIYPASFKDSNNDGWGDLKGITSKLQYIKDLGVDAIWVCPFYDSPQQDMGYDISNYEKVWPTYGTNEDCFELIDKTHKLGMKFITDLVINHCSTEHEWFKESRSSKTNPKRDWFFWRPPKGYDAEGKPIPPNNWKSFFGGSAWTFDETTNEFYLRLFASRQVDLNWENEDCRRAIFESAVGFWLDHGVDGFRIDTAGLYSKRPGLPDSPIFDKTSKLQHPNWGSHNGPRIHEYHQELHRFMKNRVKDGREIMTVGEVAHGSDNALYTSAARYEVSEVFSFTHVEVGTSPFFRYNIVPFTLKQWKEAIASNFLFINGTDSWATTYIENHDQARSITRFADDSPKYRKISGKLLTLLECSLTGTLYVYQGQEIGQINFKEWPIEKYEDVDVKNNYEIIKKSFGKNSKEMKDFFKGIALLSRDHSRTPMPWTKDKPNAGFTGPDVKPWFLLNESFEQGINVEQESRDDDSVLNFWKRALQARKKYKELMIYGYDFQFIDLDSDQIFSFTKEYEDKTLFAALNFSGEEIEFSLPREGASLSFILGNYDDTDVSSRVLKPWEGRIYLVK
# assay.details: α-glucosidase inhibitory assay (p-NPG, 96-well microplate)
# Assay type: biochemical
# condition.parameters: pure compound at 500 µg/mL, triplicate
quantity.name: α-glucosidase %inhibition (%)
Express it in %; write the number only.

Find α-glucosidase %inhibition (α-glucosidase from Saccharomyces cerevisiae (Saccharomyces cerevisiae, UniProt P53341)) for the entry `O=C(O)c1cc(O)c(O)c(O)c1`
82.8

// same read-out, input: `O=c1oc2c(O)c(O)cc3c(=O)oc4c(O)c(O)cc1c4c23`
81.9

// same read-out, input: O=C(/C=C/c1ccc(O)cc1)OC[C@H]1O[C@@H](Oc2c(-c3ccc(O)cc3)oc3cc(O)cc(O)c3c2=O)[C@H](O)[C@@H](O)[C@@H]1O [Tiliroside]
73.6
